# Tested on: NCI/ADR-RES ovarian
# assay.text: NCI tumour cell line growth inhibition, 48 h
Label rule, in plain words: TGI of 20 µM and up is rule met, under 20 µM is rule not met.

compound | group.label
O=C(NCCCNCCN1C(=O)c2cccc3cc([N+](=O)[O-])cc(c23)C1=O)c1cc(-c2ccccc2)nc2ccccc12 | rule not met
CC1(C)N=C(N)N=C(N)N1c1ccc(Cl)cc1 | rule met
CC1(C)N=C(N)N=C(N)N1c1ccc(OCCCNC(=O)Nc2cccc(S(=O)(=O)F)c2)c(Cl)c1 | rule met
CC(C)(C)OC(=O)N1C(OP(=O)(Oc2ccccc2)Oc2ccccc2)=CSc2ccccc21 | rule met
CC(=O)OCC1OC(N2C(c3ccccc3)=CC(c3ccco3)C(C#N)=C2S)C(OC(C)=O)C(OC(C)=O)C1OC(C)=O (stereo not drawn) | rule met
COc1cc2c(c(O)c1OC)C(=O)[C@@H]1CCC(=O)N1C2c1ccccc1 (stereo partly drawn) | rule met
N/N=C(\c1nc2ccc([N+](=O)[O-])cc2[nH]c1=O)C(O)c1ccc(Cl)c(Cl)c1 (stereo not drawn) | rule met
O=C(COc1cccc(/C=C2\CSc3ccc(Cl)cc3C2=O)c1)c1ccc(Cl)cc1 | rule met
O=Nc1c(-c2c(O)[nH]c3cc(Br)ccc23)[nH]c2ccccc12 | rule not met
CC(C)(c1ccccc1)c1cc(O)c(C(C)(C)c2ccccc2)cc1O | rule not met
CC1(CO)COS(=O)OC1 (stereo not drawn) | rule met
Clc1cc(Cl)c(OCCCCCCN2CCNCC2)c(Cl)c1 | rule met
CC(C)(C)c1ccc2c(c1)C#Cc1cc(C(C)(C)C)ccc1OCCCO2 | rule met

---

# System: UACC-257 melanoma
# assay.text: NCI tumour cell line growth inhibition, 48 h
Where a SMILES comes first, the peptide text is derived from it. [ ]: non-standard residue; d: D form. The star is where a group is joined. ξ: configuration not given here. ξF = NC(Cc1ccccc1)C(=O)O; Cbz = O=C(OCc1ccccc1)*; Aib = CC(C)(N)C(=O)O
Each entry below lists one item and its recorded TGI value.
assay.endpoint: TGI

molecule | measured.result
COc1ccccc1CC(C)N (centres undefined) | > 100 µM
Cc1ccc(NC(=O)CC/C(CC(=O)C(C)(C)C)=N\NC(=O)C[n+]2ccccc2)cc1C | > 100 µM
O=C1C(=C([O-])c2ccccc2)C(=O)c2ccccc21.O=C1C(=C([O-])c2ccccc2)C(=O)c2ccccc21.[Mn+2] | 48.4 µM
COC(=O)c1ncc2c(=O)[nH]c3ccccc3c2c1C(=O)OC | > 100 µM
Cc1ccc(/C=C(\NC(=O)c2ccccc2)c2nc3ccccc3[nH]2)cc1 | > 100 µM
COc1cc(/C=C2\N=C(c3ccccc3)N(c3ccc(C(=O)c4ccccc4)cc3N3C(=O)/C(=C/c4ccc(O)c(OC)c4)N=C3c3ccccc3)C2=O)ccc1O | 39.6 µM
CC1(C)N=C(N)N=C(N)N1c1ccc(Cl)cc1 | > 100 µM
COC1=C(C)C(=O)c2c(c(CCCl)c3n2CCC3OC(C)=O)C1=O (centres undefined) | 0.733 µM
CCOC(=O)CNC(=O)C(Cc1ccccc1)NC(=O)C(C)(C)NC(=O)OCc1ccccc1 (centres undefined) (Cbz-[Aib]-[ξF]-Gly-OEt) | > 100 µM

---

Item-by-item account of TGI
# Test system: HCT-15 colon
# assay.text: NCI tumour cell line growth inhibition, 48 h

compound | TGI
O=C(OCCCl)C1OC(n2cc(F)c(=O)[nH]c2=O)CC1O (stereo not drawn) | > 100 µM
CCc1n[nH]c(=O)n1/N=C(\C)c1ccc([N+](=O)[O-])cc1 | > 100 µM
C=C(C)[C@@H]1CCC2=C[C@H](C/C(C)=C\C3=CC(C)=C(O3)[C@H]1O)OC2=O | > 100 µM

---

Entries and their TGI values follow.
# Tested on: DMS 114 small cell lung
# assay.text: NCI tumour cell line growth inhibition, 48 h

compound | study.target | readout.qualifier | TGI, µM
COc1ccc(-c2nc3c(nc2-c2ccc(OC)cc2)C(N)=NS(=O)(=O)N3)cc1 | DMS 114 small cell lung | > | 100
NS(=O)(=O)c1ccc(Nc2c3ccccc3nc3c(C(=O)N4CCN(CCO)CC4)cccc23)cc1 | DMS 114 small cell lung | > | 100
CC(c1ccc2c(c1)CCC1C2CC2OC23CC=CC(=O)[C@]13C)C1C[C@]2(C)O[C@]2(C)[C@H](O)O1 (stereo not given in full) | DMS 114 small cell lung | = | 4.97
O=C(NC(Cc1ccc(Br)cc1)C(=O)O)c1ccc(I)cc1 (stereo not given) | DMS 114 small cell lung | > | 100
CCN(CC)CC(C)C(=O)/C=C/c1ccc(C)cc1 (stereo not given) | DMS 114 small cell lung | = | 3.2

---

# System: HOP-92 NSCLC
# assay.text: NCI tumour cell line growth inhibition, 48 h
Parameter threshold = 30 µM. Response is TRUE when TGI meets or exceeds it, else FALSE.

molecule | group.label
CC1(C)N=C(N)N=C(N)N1c1ccc(Cl)cc1 | TRUE
COc1ccc(/C=C2\COc3ccc(O)c(O)c3C2=O)c(OC)c1OC | FALSE
O=C(COc1cccc(/C=C2\CSc3ccc(Cl)cc3C2=O)c1)c1ccc(Cl)cc1 | FALSE
CC1C(=O)CC(c2cccs2)N(N=O)C1c1cccs1 (stereo unspecified) | TRUE
COC(=O)c1ccccc1CC1Cc2cc3c(cc2C1=O)CCC3 (stereo unspecified) | TRUE
C/C(=N\OCC(O)CNCCSCc1ccccc1)c1ccccc1Cl (stereo unspecified) | FALSE

---

# System: HCT-15 colon
# assay.text: NCI tumour cell line growth inhibition, 48 h

molecule | GI50
Clc1cc(Cl)c(OCCCCCCN2CCNCC2)c(Cl)c1 | 1820 nM
CN(C)CC(=O)Nc1ccc2ncnc(Nc3ccc(Oc4cccc(C(F)(F)F)c4)c(Cl)c3)c2c1 | 1480 nM
COc1ccc(CCN(CC(=O)N(CC(N)=O)C2CCC[C@@H]2OCc2ccccc2)C(=O)CN(C(=O)CN(CCc2ccc(Cl)cc2)C(=O)CN(C(=O)CN(C)Cc2ccccc2F)[C@H](C)C2CCCCC2)[C@H](C)C2CCCCC2)cc1OC (some centres undefined) | 2770 nM
COC(=O)[C@]12CC[C@@H](C)[C@H](C)[C@@H]1C1=CC[C@@H]3[C@@]4(C)C[C@@H](OC(=O)/C=C/c5ccccc5)[C@H](O)[C@@](C)(CO)[C@@H]4[C@H](O)C[C@@]3(C)[C@]1(C)CC2 | 1930 nM

---

# System: T-47D breast
# assay.text: NCI tumour cell line growth inhibition, 48 h
Where a SMILES comes first, the peptide text is derived from it.
assay.endpoint: TGI

compound | assay.endpoint | measured.result
Cc1cc(N2CCCCC2)nc(NC2CCCC(Nc3ccnc4cc(Cl)ccc34)C2)n1 (stereo not drawn) | TGI | 4.07 µM
CC(=O)Nc1cccc(N2C(=O)/C(=C\c3cccc(Oc4ccccc4)c3)S(=O)(=O)C2c2ccccc2)c1 (stereo not drawn) | TGI | > 100 µM
COc1cc2c(c(O)c1OC)C(=O)[C@@H]1CCC(=O)N1C2c1ccccc1 (stereo partly drawn) | TGI | > 100 µM
CC(C)(Oc1ccc(Cl)cc1)C(=O)N(C(=O)N1CCCCC1)c1ccccc1 | TGI | 9.68 µM
CCC1(CC)C(=O)N(C(=O)c2ccccc2)N(C(=O)c2ccc(Cl)cc2)C1=O | TGI | > 75 µM
CCCCCCCCCCCCCCCCCCNc1ccn(C2OC(CO)C(OP(=O)(O)OCC(O)COP(=O)(O)OCC3OC(n4cc(F)c(NCCCCCCCCCCCCCCCCCC)nc4=O)CC3O)C2O)c(=O)n1 (stereo not drawn) | TGI | > 50 µM
CCOC(=O)C1=C(C)NC(=O)NC1CN1C(=O)c2ccccc2C1=O (stereo not drawn) | TGI | > 100 µM
C[Si](C)(C)c1ccc(-c2c3ccc(-c4cc(Br)cc(Br)c4)nc3nc3nc(-c4cc(Br)cc(Br)c4)ccc23)cc1 | TGI | > 100 µM
O=C(c1ccccc1Cl)n1oc2ccccc2c1=O | TGI | > 100 µM
N#CC1=C2SCCN2C(=O)C(C#N)C12CCCCC2 (stereo not drawn) | TGI | > 100 µM
CC(=O)CC/C=C(\C)[C@H](O)[C@H](C)C(=O)O[C@H]1C[C@H](C)C=C2C=C[C@@]3(C)O[C@@H](O)CC(=O)[C@]3(C)[C@H]21 | TGI | 2.54 µM
C#Cc1cccc(Nc2ncnc3ccc(OCCCCNCCS(C)(=O)=O)cc23)c1 | TGI | > 25 µM
C=CC(=O)N1C[C@@H]2CCOc3c(Cl)c(-c4c(O)cccc4F)c(F)c4ncnc(c34)N2C[C@H]1C | TGI | 87.4 µM
COc1ccccc1C(=O)NO | TGI | > 100 µM
O=C(Cc1ccccc1)NN1C(=O)/C(=C\c2cccc([N+](=O)[O-])c2)SC1=Nc1ccccc1 | TGI | > 100 µM
COc1cc([N+](=O)[O-])c(OC)cc1-c1nc2sc(C)cn2c1/C(N)=N/C(=N)N | TGI | > 100 µM
Cc1c(/C=N/NC(=S)Nc2ccc(Cl)cc2)c(=O)n(-c2ccccc2)n1C | TGI | > 83.9 µM
NC(=O)C1CCCN1C(=O)C(N)Cc1ccccc1 (stereo not drawn) (H-Phe-Pro-NH2; configuration not given here) | TGI | > 100 µM
